Attribution: patent US20050080013A1

- SYSTEM TESTED: T1, lecithin:cholesterol acyltransferase (LCAT), purified from human plasma (human, UniProt P04180 25-440)
- T1 sequence (looked up): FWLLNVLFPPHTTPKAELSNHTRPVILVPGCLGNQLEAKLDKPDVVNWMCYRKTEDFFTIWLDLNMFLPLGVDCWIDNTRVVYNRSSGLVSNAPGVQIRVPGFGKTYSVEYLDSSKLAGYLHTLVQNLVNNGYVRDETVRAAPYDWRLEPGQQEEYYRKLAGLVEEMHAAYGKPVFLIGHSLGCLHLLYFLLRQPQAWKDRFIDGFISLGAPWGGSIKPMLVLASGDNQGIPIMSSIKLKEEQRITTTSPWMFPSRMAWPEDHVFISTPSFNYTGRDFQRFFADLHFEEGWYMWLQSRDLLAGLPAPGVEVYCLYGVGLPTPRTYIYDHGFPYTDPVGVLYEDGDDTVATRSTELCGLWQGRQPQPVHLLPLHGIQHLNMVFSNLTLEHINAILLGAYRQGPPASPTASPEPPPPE
- PROCEDURE SUMMARY: cell-based or functional assay
No end group written: not given here. *: point of attachment. Dansyl = CN(C)c1cccc2c(S(=O)(=O)*)cccc12
MEASURED PARAMETER: ACTIVITY (%) LCAT
Please make sure the unit comes right after the number.

Worked set:
1. Dansyl-PVLDLFRELLNELLEALKQKLK [peptide 30] : 38%
2. PLLELLKELLQELLEALKQKLK [peptide 36] : 31%
3. PVLELFENLLERLLDLLQKKLK [peptide 165] : 23%

Now look at this entry.
Just so you know, measured ACTIVITY (%) LCAT for KLKQKLAELLENLLERFLDLVP [peptide 99] came out at 2%
